- Assay Details: CREB reporter modulators under forskolin, primary screen, cell-based, PC12, CRE-LacZ reporter, forskolin-stimulated (AID 1146);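 further: PC12 cells with 6xCRE LacZ reporter stimulated by forskolin 10 µM; beta-galactosidase reporter signal reflecting CREB driven transcription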
- Protocol Conditions: luminescence, 4.5 h, higher = more signal, called active from +8 up or from −8 down
Use Criterion met when the recorded z-score is no lower than -0.07; use Criterion not met when it is lower.

Query Smiles	Classification
CN1C(=O)[C@]2(Cc3ccccc3)N=C(c3ccc(OCCCO)cc3)O[C@@H]2c2ccccc21	Criterion not met
C=C(COC)/C(=C/C[C@@H](OC(C)=O)c1ccc(CO)o1)c1cnc2ccccc2c1	Criterion not met
COCCOC(=O)N1C(=O)[C@@]2(c3cc(C#CC4=CCCCC4)ccc31)[C@H](C(N)=O)[C@H]1C(=O)O[C@H](c3ccccc3)[C@H](c3ccccc3)N1[C@@H]2c1ccc(OCCO)cc1	Criterion not met
O=C1[C@H]2C=C(Br)[C@H](C[C@@H]2c2ccccc2)[C@@]12CO2	Criterion met
CC(C)(C)OC(=O)CC[C@]1(C(=O)O)N=C(c2ccc(OCCCO)cc2)O[C@H]1c1ccccc1N=[N+]=[N-]	Criterion not met
C=C(COC)/C(=C/C[C@H](OC(=O)c1ccncc1)c1ccc(OCCO)cc1)c1cnc2ccccc2c1	Criterion not met
C=CCOC(=O)[C@H]1[C@@H]2C(=O)O[C@@H](c3ccccc3)[C@@H](c3ccccc3)N2[C@@H](c2ccc(OCCOC(=O)[C@H]3C[C@H]4C(=O)N5CCC[C@H]5C(=O)N4[C@H]3c3ccc(O)cc3)cc2)[C@]12C(=O)Nc1ccc(I)cc12	Criterion met

###

- Test system: Lefty1
- Assay Details: Lefty1 binders on small-molecule microarrays, primary screen, biochemical, small-molecule microarray, 635/667 nm fluorescence (AID 1139)
- Protocol Conditions: small-molecule microarray binding, fluorescence 635/667; higher = more signal
Listed compounds paired with reported composite z-score
Observation Type: composite z-score

> print(dat)
                                   compound  reported.measurement
1  CCCCCN1CC=CC23O[C@@H]4/C=C\CCCOC(=O)C4[C@H]2C(=O)N(C(CO)C(C)C)[C@@H]3C1=O (some centres undefined)                 0.418
2  COc1ccc([C@H]2C[C@H]3C(Br)=C[C@@H]2C(=O)[C@]32CO2)cc1                0.0745
3  COC(=O)[C@@]1(Cc2ccccc2)[C@H]2c3cc(C(=O)N4CCCC4)n(Cc4cccc5ccccc45)c3C[C@H]2CN1C(=O)c1ccccc1                -0.922
4  [N-]=[N+]=Nc1ccccc1C[C@]1(C(N)=O)N=C(c2ccc(OCCCO)cc2)O[C@H]1c1ccccc1                -0.364

###

- Measured Target: Torsin-1A-interacting protein 1 (Homo sapiens) (UniProt Q5JTV8)
- Sequence (Q5JTV8 whole entry, looked up): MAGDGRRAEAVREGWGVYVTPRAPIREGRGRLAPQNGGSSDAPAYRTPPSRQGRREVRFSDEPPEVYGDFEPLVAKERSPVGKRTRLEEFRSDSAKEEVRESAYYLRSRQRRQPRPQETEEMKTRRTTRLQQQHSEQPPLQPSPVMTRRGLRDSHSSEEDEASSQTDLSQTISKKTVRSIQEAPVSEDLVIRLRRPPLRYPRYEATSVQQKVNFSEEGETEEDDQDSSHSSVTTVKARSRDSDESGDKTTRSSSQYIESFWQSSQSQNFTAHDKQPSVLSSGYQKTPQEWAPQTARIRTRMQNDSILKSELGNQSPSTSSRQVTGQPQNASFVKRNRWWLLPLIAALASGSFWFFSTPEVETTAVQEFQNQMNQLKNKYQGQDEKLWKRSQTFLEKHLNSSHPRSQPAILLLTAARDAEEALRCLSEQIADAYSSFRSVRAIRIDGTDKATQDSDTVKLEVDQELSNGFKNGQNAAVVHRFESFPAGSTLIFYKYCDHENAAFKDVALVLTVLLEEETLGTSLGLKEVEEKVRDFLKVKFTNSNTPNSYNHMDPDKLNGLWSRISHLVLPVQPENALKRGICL
- Assay Details: LAP1 binders from COS7 cell lysate, primary screen, small-molecule microarray, 635/667 nm fluorescence (AID 1116)
- Protocol Conditions: COS7-hLAP1 lysate binding, 635 nm fluorescence, higher = more signal
Observation Type: composite z-score

Compound	Measured Target	Reported Measurement
COc1cc2c(cc1OC)CN(C(=O)[C@H]1[C@@H]3C(=O)O[C@@H](c4ccccc4)[C@@H](c4ccccc4)N3[C@@H](c3ccc(O)cc3)[C@]13C(=O)Nc1ccc(C#CCNC(N)=O)cc13)CC2	Torsin-1A-interacting protein 1 (Homo sapiens) (UniProt Q5JTV8)	-0.0992
O=C1O[C@H](c2ccccc2)[C@H](c2ccccc2)N2[C@H]1[C@@H](C(=O)NC[C@H](O)c1ccccc1)[C@]1(C(=O)Nc3ccccc31)[C@H]2c1ccc(OCCO)cc1	Torsin-1A-interacting protein 1 (Homo sapiens) (UniProt Q5JTV8)	1.5
COc1ccc(C(O)C2C=CC3C(=O)NC(=O)C3N2Nc2ccccn2)cc1 (stereo not drawn)	Torsin-1A-interacting protein 1 (Homo sapiens) (UniProt Q5JTV8)	0.658
